Recorded normalized SmoIP GFP fluorescence values for a group of compounds are listed next.
tested on: Drosophila S2 cl14 SmoIP sensor cells; assay: normalized SmoIP GFP fluorescence (untreated unstimulated = 0%, untreated Hh-stimulated = 100%); higher = more Smo activation sensor fluorescence; conditions: stimulation: mock conditioned medium (-Hh); compound concentration: 2 uM; 24 h;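 also: flow cytometry read-out as median GFP intensity of gated cells, compounds added 30 min before Hh-conditioned or mock medium, mock-treated cells serving as unstimulated baseline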
Structures can show the parent of a compound that is named as a salt.
Lab book: enter the figure in %, no units written.

Recorded results for 3 compounds are shown here.
Cc1cc(SCc2sc(-c3ccc(C(F)(F)F)c(F)c3)nc2C)ccc1OCC(=O)O : -1.74
Cc1sc2c(c1C)C(c1ccc(Cl)cc1)=N[C@@H](CC(=O)Nc1ccc(O)cc1)c1nnc(C)n1-2 : -1.34
CN1c2ccccc2C(NCCCCCCC(=O)O)c2ccc(Cl)cc2S1(=O)=O (centres undefined) [Tianeptine-sodium-salt] : 0.274

Now look at this one.
Query: Recall the recorded normalized SmoIP GFP fluorescence for N[C@@H]1C[C@H]1c1ccccc1 [tranylcypromine-2-pcpa-hcl] with Drosophila S2 cl14 SmoIP sensor cells and state it.
Response: -1.34

Reference source for all entries: the supplement of paper PMC5662767
